Attribution: patent US11401278B2

Tested on: SUDHL5
Assay: Induction of caspase-3/7 activity (Assay 4), SUDHL5
Format: cell-based
Conditions: caspase-3/7 induction, 3 hours, median
reported_property: EC50 (µM)

* Cc1c2c(nn1C)CN(C)S(=O)(=O)CCCn1c(C(=O)O)c(CCCOc3cccc4ccccc34)c3ccc(Cl)c-2c31 (single isomer, unassigned; enantiomer 2) [Example 6] | 16

(a) Cc1c2c(nn1C)C(CCN1CCOCC1)N(C)S(=O)(=O)CCCn1c(C(=O)O)c(CCCOc3cccc4cc(F)ccc34)c3ccc(Cl)c-2c31 (racemic) [Example 48]
(b) CCc1c2c(nn1C)C(N1CCOCC1)CCN(C)S(=O)(=O)CCCn1c(C(=O)O)c(CCCOc3cccc4cc(F)ccc34)c3ccc(Cl)c-2c31 (single isomer, unassigned; enantiomer 1) [Example 70]
Hey, which is lower on measured EC50, a or b ? Field: selected label. Fill in the label of the entry you choose.
a
(a: 0.013 µM, b: 2.6 µM)

---

Target: MCL-1 (Homo sapiens (Human), UniProt Q07820, K194A/K197A/R201A)
Sequence (Q07820 whole entry K194A/K197A/R201A, looked up): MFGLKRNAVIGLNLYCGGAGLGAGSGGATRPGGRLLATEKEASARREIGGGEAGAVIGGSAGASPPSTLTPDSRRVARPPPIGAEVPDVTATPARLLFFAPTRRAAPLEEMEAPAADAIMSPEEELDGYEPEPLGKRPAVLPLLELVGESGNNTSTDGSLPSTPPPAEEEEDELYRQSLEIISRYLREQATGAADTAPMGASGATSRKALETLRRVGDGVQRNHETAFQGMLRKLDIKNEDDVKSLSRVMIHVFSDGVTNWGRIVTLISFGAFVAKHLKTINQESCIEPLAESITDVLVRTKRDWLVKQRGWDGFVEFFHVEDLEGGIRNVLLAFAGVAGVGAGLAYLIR
Assay: Protein-protein interaction assay MCL-1/Noxa BH3 peptide (MCL-1 assay, TR-FRET)
Assay type: binding
Details: MBP-MCL-1 / Noxa BH3 peptide, median
reported_property: IC50 (nM)

- CCNCC.CCc1c2c(nn1C)C(CCN1CCOCC1)N(C)S(=O)(=O)CCCn1c(C(=O)O)c(CCCOc3cccc4cc(F)ccc34)c3ccc(Cl)c-2c31 (single isomer, unassigned; enantiomer 2): 0.59
- CCc1c2c(nn1C)C(CCN1CCOCC1)N(C)S(=O)(=O)CCCn1c(C(=O)O)c(CCCOc3cccc4cc(F)ccc34)c3ccc(Cl)c-2c31 (single isomer, unassigned; enantiomer 1) [Example 75]: 150
- CCc1c2c(nn1C)CN(C)S(=O)(=O)CCCn1c(C(=O)O)c(CCCOc3cc(C)c(Cl)c(C)c3)c3ccc(F)c-2c31 (racemic): 4.2
- CCc1c2c(nn1C)CN(C)S(=O)(=O)CCCn1c(C(=O)O)c(CCCOc3ccc(F)c4ccccc34)c3ccc(Cl)c-2c31: 3.4
- CCc1c2c(nn1C)C(CCN1CCOCC1)N(C)S(=O)(=O)CCCn1c(C(=O)O)c(CCCOc3cccc4cc(F)ccc34)c3ccc(Cl)c-2c31 (racemic) [Example 73]: 0.34

---

Molecular target: MCL-1 (Homo sapiens (Human), UniProt Q07820, K194A/K197A/R201A)
Experiment: Protein-protein interaction assay MCL-1/Noxa BH3 peptide (MCL-1 assay, TR-FRET)
Format: binding
Conditions: MBP-MCL-1 / Noxa BH3 peptide, median
reported_property: IC50 (nM)

# annotated cases, reported IC50 shown
- CCc1c2c(nn1C)CN(C)S(=O)(=O)CCCn1c(C(=O)O)c(CCCOc3cccc4cc(F)ccc34)c3ccc(F)c-2c31 (single isomer, unassigned; enantiomer 1) [Example 8]: 1.7
- CCc1c2c(nn1C)C(N1CCOCC1)CCN(C)S(=O)(=O)CCCn1c(C(=O)O)c(CCCOc3cccc4cc(F)ccc34)c3ccc(Cl)c-2c31 (racemic) [Example 69]: 1.5
- CCc1c2c(nn1C)C(CCC1CCOCC1)N(C)S(=O)(=O)CCCn1c(C(=O)O)c(CCCOc3cccc4cc(F)ccc34)c3ccc(Cl)c-2c31 (racemic) [Example 60]: 2.4
- CCc1c2c(nn1C)CN(C)S(=O)(=O)CCCn1c(C(=O)O)c(CCCOc3cccc4cc(F)ccc34)c3ccc(Cl)c-2c31 (single isomer, unassigned; enantiomer 1) [Example 36]: 0.6
- CCc1c2c(nn1C)CN(C)S(=O)(=O)CCCn1c(C(=O)O)c(CCCOc3cccc4cc(F)ccc34)c3ccc(F)c-2c31 (single isomer, unassigned; enantiomer 2) [Example 9]: 34

(P) Cc1c2c(nn1C)CN(C)S(=O)(=O)CCCn1c(C(=O)O)c(CCCOc3ccc(F)c4ccccc34)c3ccc(F)c-2c31 [Example 30]
(Q) Cc1c2c(nn1C)CN(C)S(=O)(=O)CCCn1c(C(=O)O)c(CCCOc3cccc4cc(F)ccc34)c3ccc(F)c-2c31 (racemic) [Example 25]
(R) Cc1c2c(nn1C)C(CCN1CCOCC1)N(C)S(=O)(=O)CCCn1c(C(=O)O)c(CCCOc3cccc4cc(F)ccc34)c3ccc(Cl)c-2c31 (single isomer, unassigned; enantiomer 1) [Example 66]
(S) CCc1c2c(nn1C)C(N1CCOCC1)CCN(C)S(=O)(=O)CCCn1c(C(=O)O)c(CCCOc3cccc4cc(F)ccc34)c3ccc(Cl)c-2c31 (single isomer, unassigned; enantiomer 1) [Example 70]
(T) Cc1c2c(nn1C)C(N1CCOCC1)CCN(C)S(=O)(=O)CCCn1c(C(=O)O)c(CCCOc3cccc4cc(F)ccc34)c3ccc(Cl)c-2c31 (racemic) [Example 47]
Could you please order the items by IC50, going from the lowest number to the highest? API: response body holds the labels in the requested order.
T, Q, P, R, S

(I) Cc1c2c(nn1C)CN(C)S(=O)(=O)CCCn1c(C(=O)O)c(CCCOc3cccc4cc(F)ccc34)c3ccc(F)c-2c31 (single isomer, unassigned; enantiomer 1) [Example 38]
(II) CCc1c2c(nn1C)CN(C)S(=O)(=O)CCCn1c(C(=O)O)c(CCCOc3cccc4c3CCC4)c3ccc(Cl)c-2c31 [Example 21]
Hey, which is lower on measured IC50, I or II ? Field: selected label. Fill in the label of the entry you choose.
II
(II: 1.7 nM, I: 23 nM)

(a) CCc1c2c(nn1C)CN(CC)S(=O)(=O)CCCn1c(C(=O)O)c(CCCOc3cccc4cc(F)ccc34)c3ccc(Cl)c-2c31 (single isomer, unassigned; enantiomer 2) [Example 58]
(b) CCc1c2c(nn1C)CN(C)S(=O)(=O)CCCn1c(C(=O)O)c(CCCOc3cccc4cc(F)ccc34)c3ccc(F)c-2c31 (racemic) [Example 7]
Hey, which is lower on measured IC50, a or b ? Field: selected label. Fill in the label of the entry you choose.
b

---

Biological target: SUDHL5
Assay: Induction of caspase-3/7 activity (Assay 4), SUDHL5
Format: cell-based
Details: caspase-3/7 induction, 3 hours, median
reported_property: EC50 (nM)

# annotated cases, reported EC50 shown
• Cc1c2c(nn1C)CN(C1CC1)S(=O)(=O)CCCn1c(C(=O)O)c(CCCOc3cccc4ccccc34)c3ccc(Cl)c-2c31 [Example 40] = 1900
• Cc1c2c(nn1C)C(CCN1CCOCC1)N(C)S(=O)(=O)CCCn1c(C(=O)O)c(CCCOc3cccc4ccccc34)c3cccc-2c31 (single isomer, unassigned; enantiomer 1) [Example 45] = 27000
• Cc1c2c(nn1C)CNS(=O)(=O)CCCn1c(C(=O)O)c(CCCOc3cccc4cc(F)ccc34)c3ccc(Cl)c-2c31 (single isomer, unassigned; enantiomer 1) [Example 51] = 340
• CCc1c2c(nn1C)CN(CC)S(=O)(=O)CCCn1c(C(=O)O)c(CCCOc3cccc4cc(F)ccc34)c3ccc(Cl)c-2c31 (single isomer, unassigned; enantiomer 2) [Example 58] = 15000
• CCc1c2c(nn1C)C(CCN1CCOCC1)N(C)S(=O)(=O)CCCn1c(C(=O)O)c(CCCOc3cccc4cc(F)ccc34)c3ccc(Cl)c-2c31 (single isomer, unassigned; enantiomer 1) [Example 75] = 11000

(1) Cc1c2c(nn1C)CN(C)S(=O)(=O)CCCn1c(C(=O)O)c(CCCOc3cccc4cc(F)ccc34)c3ccc(F)c-2c31 (single isomer, unassigned; enantiomer 1) [Example 38]
(2) Cc1c2c(nn1C)C(CCN1CCOCC1)N(C)S(=O)(=O)CCCn1c(C(=O)O)c(CCCOc3cccc4ccccc34)c3cccc-2c31 (single isomer, unassigned; enantiomer 2) [Example 46]
(3) Cc1c2c(nn1C)C(CCN1CCOCC1)N(C)S(=O)(=O)CCCn1c(C(=O)O)c(CCCOc3cccc4cc(F)ccc34)c3ccc(Cl)c-2c31 (single isomer, unassigned; enantiomer 2) [Example 67]
Rank descending by EC50. API: response body holds the labels in the requested order.
1, 2, 3

---

System: AMO-1
Assay: Antiproliferation assay (Assay 7), AMO-1
Assay type: cell-based
Conditions: CellTiter-Glo, 72 hours, several values per example, listed as 09, read-out: Antiproli AMO-1 [M] IC50
reported_property: IC50

Please give the measured IC50 for this compound: CCc1c2c(nn1C)CN(C)S(=O)(=O)CCCn1c(C(=O)O)c(CCCOc3cccc4cc(F)ccc34)c3ccc(F)c-2c31 (single isomer, unassigned; enantiomer 2)
> 3.3e-05 M

---

Biological target: BCL-2 (Homo sapiens (Human))
Sequence (P10415 other isoform, or with tags, fused parts or gaps): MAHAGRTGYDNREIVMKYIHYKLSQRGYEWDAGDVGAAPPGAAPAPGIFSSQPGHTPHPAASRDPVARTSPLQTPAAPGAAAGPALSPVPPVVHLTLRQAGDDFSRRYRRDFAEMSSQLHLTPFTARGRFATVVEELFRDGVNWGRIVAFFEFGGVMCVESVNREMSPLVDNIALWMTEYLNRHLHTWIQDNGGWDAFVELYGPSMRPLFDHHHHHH
Test: Protein-protein interaction assay BCL-2/Bad BH3 peptide (BCL-2 assay, TR-FRET)
Type: binding
Conditions: His-BCL-2 / Bad BH3 peptide, median
Method: Assay 3 Protein-Protein Interaction Assay: BCL-2/Bad BH3 Peptide (BCL-2 Assay) The dose-dependent inhibition by the compounds described in this invention of the interaction between BCL-2 and the BH3 domain of Bad (both human) was determined using a steady state binding competition assay with time-resolved fluorescence energy transfer (TR-FRET) readout. […]
reported_property: IC50

# annotated cases, reported IC50 shown
• Cc1c2c(nn1C)CN(C1CC1)S(=O)(=O)CCCn1c(C(=O)O)c(CCCOc3cccc4cc(F)ccc34)c3ccc(Cl)c-2c31 (racemic) [Example 41] = 19 µM
• Cc1c2c(nn1C)CN(C1CC1)S(=O)(=O)CCCn1c(C(=O)O)c(CCCOc3cccc4cc(F)ccc34)c3ccc(Cl)c-2c31 (single isomer, unassigned; enantiomer 1) [Example 42] = 12 µM
• Cc1c2c(nn1C)C(CCN1CCOCC1)N(C)S(=O)(=O)CCCn1c(C(=O)O)c(CCCOc3cccc4cc(F)ccc34)c3ccc(Cl)c-2c31 (racemic) [Example 65] = > 20 µM
• CCc1c2c(nn1C)CN(C)S(=O)(=O)CCCn1c(C(=O)O)c(CCCOc3cccc4ccccc34)c3ccc(F)c-2c31 (racemic) = > 20 µM

Please give the measured IC50 for this compound: CCc1c2c(nn1C)CN(C)S(=O)(=O)CCCn1c(C(=O)O)c(CCCOc3ccc(F)c4ccccc34)c3ccc(Cl)c-2c31
> 20 µM

Another compound to look at: Cc1c2c(nn1C)CN(CCN1CCOCC1)S(=O)(=O)CCCn1c(C(=O)O)c(CCCOc3cccc4ccccc34)c3cccc-2c31 (single isomer, unassigned; enantiomer 2) [Example 3]
> 20 µM

Another compound to look at: CCc1c2c(nn1C)CN(C)S(=O)(=O)CCCn1c(C(=O)O)c(CCCOc3cccc4cc(F)ccc34)c3ccc(F)c-2c31 (single isomer, unassigned; enantiomer 1) [Example 8]
> 20 µM

Another compound to look at: Cc1c2c(nn1C)C(CCN1CCOCC1)N(C)S(=O)(=O)CCCn1c(C(=O)O)c(CCCOc3cccc4cc(F)ccc34)c3ccc(Cl)c-2c31 (single isomer, unassigned; enantiomer 1) [Example 66]
> 20 µM
